test system: MS2 coat protein; experiment: apparent KD of MS2 coat protein; designed switch direction (-1 OFF switch, 1 ON switch): 1; higher = weaker reporter binding; settings: Eterna round: R95; input ligand: none
OBSERVED PROPERTY: apparent KD of MS2 coat protein

Solved entries (count: 5):
Would you kindly share the measured apparent KD of MS2 coat protein for GGAGCCGGCACCGAGGAUAUUCAUAUUAAAACAUGAGGAUCACCCAUGUAGAGGAGAACCUCUUGGGAGAAGGCGGAUCGGCUCG [Xeonanis - 26] (puzzle: Same State 2) ?
1090 nM

# iterate: AAAAGACAUGAGGAUCACCCAUGUAUGAAAAGUACAGGAUAUCACGCGCUAAAAUGCGAGUGAGAAGGGUGAAAAU [Oronen] (puzzle: Same State 1)
180 nM

# iterate: AGUCCAGCCUGAGCUGGACAAAAGCGUGUACAUGAGGAUCACCCAUGUUCAUGUACAAGCUUUUUGCUCGUCUUAAA [Zipper 52 - 6] (puzzle: Sensor for hsa-mir-208a)
127 nM

# iterate: GGUUUAGUCAAGUGCCGUUGCACUUGAAAACAUGAGGAUCACCCAUGUUUGGGACAAGCUUUGCUCCUCGUCUUUCC [Tiatmaraen] (puzzle: Sensor for hsa-mir-208a)
591 nM

# iterate: GGAGAGAGAGCACAGGAUAUUUAAGGAGAGACAUGAGGAUCACCCAUGUGAGAGAGAGAGGAGAGAGAGAAGGGUGAGAGAGAGG [Altered State 2-17 - Jieux - Same State 2] (puzzle: Same State 2)
83.9 nM

// each listed sequence needs a value for apparent KD of MS2 coat protein
1. UAGAGAGGAAGCGAGGAUAUCGUGUGAGGUACAUGAGGAUCACCCAUGUUUGAUGUUGAGAGAGGCGAGAAGGCGCAGGAGAUUA [JR_SS2_Sub084] (puzzle: Same State 2)
2. CGUCCAGCCUGAGCUGGACAAAAGCAUGUACAUGAGGAUCACCCAUGUUCAUGUACAAGCUUUUUGCUCGUCUUAGC [salish99_208a_r3_075] (puzzle: Sensor for hsa-mir-208a)
3. AAGCGCUGUCGAGAGGAUAUGCGGUGAUGGACAUGAGGAUCACCCAUGUUAGCGAUAGCAUUACGGUAGAAGGCUCUACAGCUGA [Mat - Same State 2 - Mod of UCT - D86] (puzzle: Same State 2)
4. AGGGCCGCGGCACAGGAUAUGCACAGGUUCACAUGAGGAUCACCCAUGUGCUCUAGAUAGCUUGAGCAGAAGGGUGUCAUGGUAA [Beadi] (puzzle: Same State 2)

["35.6 nM", "860 nM", "272 nM", "27.9 nM"]

Would you kindly share the measured apparent KD of MS2 coat protein for AGUCCAGCCAGAGCUGGACAAAAGCAUGUACAUGAGGAUCACCCAUGUCAUGUACAAGCUUUUUGCUCGUCUUAAUA [Mat - hsa-mir-208a - Mod of JL - D37] (puzzle: Sensor for hsa-mir-208a) ?
621 nM

----------
Please provide measured apparent KD of MS2 coat protein for the entries that follow.
test system: MS2 coat protein; test: apparent KD of MS2 coat protein; designed switch direction (-1 OFF switch, 1 ON switch): -1; higher = weaker reporter binding; settings: Eterna round: R95; input ligand: FMN 200 uM
Numbers only, in nM.

Solved entries (count: 2):
Notebook entry, MS2 coat protein assay: apparent KD of MS2 coat protein of CCGAGGUGGCGGUCCUAUGACAUGAGGAUCACCCAUGUACCUCGCCACAAGCUUUUUGCUCAUCUUAUAAUUCUCGG [Gelelebius] (puzzle: Sensor v3, turn-off variant 1) = ?
18

# iterate: AGUACUAACACGGAAGUGUUAGUACUAUAAGCUUGUGUUACAUGAGGAUCACCCAUGUCCUCAUAAGCUCGUCUUAA [Mat - Sensor v3 - Turn-off var 2 - D70] (puzzle: Sensor v3, turn-off variant 2)
35.1

Consider the additional sequence presented here.
Notebook entry, MS2 coat protein assay: apparent KD of MS2 coat protein of AGUACUAACACGAAAGUGUUAGUACAAUAAGCUUGUGGUACAUGAGGAUCACCCAUGUCCUCAUAAGCUCGUCUUAU [JL-sv3-2.13 mat747 mod] (puzzle: Sensor v3, turn-off variant 2) = ?
22.5
